Reference source for all entries: PubChem BioAssay (NCATS)

# System: MCC-13
# test-description: qHTS assay to identify novel small-molecules to repurpose for Merkel cell carcinoma treatment (AID 1296009); also: nearly all actives have a fitted effect of over 60% in size
# cond: MCC and control cell lines, CellTiter-Glo viability, 72 h; series mostly up to 46 µM
Results filed as inconclusive are left out. The source made the active and inactive calls. Calls follow the shape of the dose curve; as a rule, active = well fitted inhibition curve with a large enough effect; inconclusive = small, poorly fitted or top-dose-only effect; inactive = flat fitted curve, though single readings scatter. Where a SMILES comes first, the peptide text is derived from it.
Outcomes: TRUE for active, FALSE for inactive

{"columns": ["compound", "group"],
 "data": [
  ["CCC(C(=O)OCCN1CCOC(c2ccccc2)C1C)c1ccccc1 (centres undefined)", "FALSE"],
  ["Nc1c(NC/C=C\\COc2cc(CN3CCCCC3)ccn2)c(=O)c1=O", "FALSE"],
  ["CNC(=O)c1cnn(-c2nc(N)c3ncn([C@@H]4O[C@H](CO)[C@@H](O)[C@H]4O)c3n2)c1", "FALSE"],
  ["O=C(O)CNC(=O)CNC(=O)CNC(=O)CSC(=O)c1ccccc1", "FALSE"],
  ["CC(=O)OC[C@H]1O[C@@H](OC(C)=O)[C@H](OC(C)=O)[C@@H]1OC(C)=O", "FALSE"],
  ["Nc1c2ccccc2nc2ccccc12", "TRUE"],
  ["CC(=O)Nc1c(I)c(NC(C)=O)c(I)c(C(=O)O)c1I", "FALSE"],
  ["O=C(c1cc(O)c(O)c(O)c1)c1ccc(O)c(O)c1O", "FALSE"],
  ["CC(C)(C)C(=O)OCOC(=O)C1N2C(=O)CC2S(=O)(=O)C1(C)C (centres undefined)", "FALSE"],
  ["CC(C)C[C@H](NC(=O)CNC(=O)[C@H](Cc1ccc(O)cc1)NC(=O)[C@H](CO)NC(=O)[C@H](Cc1c[nH]c2ccccc12)NC(=O)[C@H](Cc1cnc[nH]1)NC(=O)[C@@H]1CCC(=O)N1)C(=O)N[C@@H](CCCN=C(N)N)C(=O)N1CCC[C@H]1C(=O)NCC(N)=O (stereo in doubt)", "FALSE"],
  ["NS(=O)(=O)c1ccc(N2CCCCS2(=O)=O)cc1", "FALSE"],
  ["Cc1ccc(-c2ccccc2C#N)cc1", "FALSE"],
  ["CN1CCC(=C2c3ccccc3CCc3cccnc32)CC1", "FALSE"],
  ["Cc1oc(-c2ccccc2)nc1CCC(=O)c1ccc(CC2SC(=O)NC2=O)cc1 (centres undefined)", "FALSE"],
  ["O=C(OCC1(COC(=O)c2cccnc2)CCCC(COC(=O)c2cccnc2)(COC(=O)c2cccnc2)C1O)c1cccnc1", "FALSE"],
  ["CC(=O)N[C@@H](CO)C(=O)N[C@@H](CC(=O)O)C(=O)N[C@@H](CCCCN)C(=O)N1CCC[C@H]1C(=O)O (Ac-SDKP-OH)", "FALSE"],
  ["Nc1c[n+](N2CCOCC2)no1", "FALSE"],
  ["C/C(=N\\O)[C@@H](C)NCC(C)(C)CN[C@H](C)/C(C)=N/O", "FALSE"],
  ["O=C(CCCCC(=O)Nc1c(I)cc(I)c(C(=O)O)c1I)Nc1c(I)cc(I)c(C(=O)O)c1I", "FALSE"],
  ["O=C(O)Cc1ccc(OCCNC[C@H](O)c2ccccc2)cc1", "FALSE"],
  ["Cc1nc2n(c(=O)c1CCN1CCC(C(=O)c3ccc(F)cc3)CC1)CCS2", "FALSE"],
  ["CO[C@@]1(NC(=O)CSC[C@@H](N)C(=O)O)C(=O)N2C(C(=O)O)=C(CSc3nnnn3C)CS[C@@H]21", "FALSE"],
  ["OCCc1ccccc1", "FALSE"],
  ["Cc1ccc(Cl)c(OCC(O)CNC(C)(C)C)c1 (centres undefined)", "FALSE"],
  ["CCCC(CCC)(C(=O)OCC)C(=O)OCC", "FALSE"],
  ["Cc1ccc(C(=O)C(=O)O)cc1C", "FALSE"],
  ["CC(C)C(=O)Nc1cccc(C2CN3CCSC3=N2)c1 (centres undefined)", "FALSE"],
  ["CC(=O)N[C@@H](CCC(N)=O)C(=O)O", "FALSE"],
  ["O=C(O)c1[nH]n(-c2ccc(S(=O)(=O)O)cc2)c(=O)c1N=Nc1ccc(S(=O)(=O)O)cc1", "FALSE"],
  ["CN1CCC(N(Cc2cccs2)c2ccccc2)CC1", "FALSE"],
  ["CCCc1ncc(C(=O)O)s1", "FALSE"],
  ["C[N+]1(CC2COC(c3ccccc3)(c3ccccc3)O2)CCCCC1 (centres undefined)", "FALSE"],
  ["C[C@H](N)C(=O)N[C@@H](C)C(=O)NC1[C@H]2CN(c3nc4c(cc3F)c(=O)c(C(=O)O)cn4-c3ccc(F)cc3F)C[C@@H]12 (some centres undefined)", "FALSE"],
  ["CCCCC(O)/C=C(C)/C=C/C=C/C(=O)N1CCCC1=O (centres undefined)", "FALSE"],
  ["CCS(=O)(=O)c1ccc(OC)c(C(=O)OC)c1", "FALSE"],
  ["O=C(O)c1ccc(OCCN2CCCCC2)cc1", "FALSE"],
  ["O=C1CCCc2c(O)cccc21", "FALSE"],
  ["C#CC(C)(CC)OC(=O)c1ccccc1C(=O)O (centres undefined)", "FALSE"],
  ["CC1(C)OC(=O)Nc2ccc(Br)cc21", "FALSE"],
  ["Nc1ccc2cc3ccc(N)cc3nc2c1", "TRUE"],
  ["CCCCCCCCCCCCCCCCCCN(C)C", "FALSE"],
  ["Clc1ccc2c(c1)Nc1ccccc1S2", "FALSE"],
  ["Cc1ccc(C(=O)Oc2ccc(C(O)CNC(C)(C)C)cc2OC(=O)c2ccc(C)cc2)cc1 (centres undefined)", "FALSE"],
  ["CCCCC(CC)COC(=O)c1ccccc1C(=O)O (centres undefined)", "FALSE"]
]}
